// remaining activity at 25 µM lookup, one value per entry
- tested_on: E. coli CsgA (Escherichia coli, UniProt P28307)
- Construct: made in house; host or cells: E. coli NEB 3016 slyD::kan, pET11d
- Sequence (P28307 23-151): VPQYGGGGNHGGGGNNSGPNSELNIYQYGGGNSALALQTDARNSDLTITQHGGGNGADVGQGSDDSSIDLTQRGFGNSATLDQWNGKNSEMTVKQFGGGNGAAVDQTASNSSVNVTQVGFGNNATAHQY
- method: In vitro ThioflavinT assay of CsgA aggregation (CsgA ThT Assay)
- Type: biochemical
- test_parameters: read-out: CsgA ThT Assay (2 μM CsgA) % Control Bmax 25 μM, activity range, class symbol; CsgA 2 μM, white plates; compound 25 μM
- Protocol: In vitro ThioflavinT assay to determine effects of compounds on CsgA aggregation. […] Protein concentration was assessed by the NanoDrop technique (Thermo Scientific), as is familiar to one skilled in the art. […] During the assay, plates were shaken initially for 5 seconds and subsequently for 3 seconds prior to fluorescent readings. Readings were performed every 15 minutes for up to 1005 minutes. The effect of compounds on CsgA aggregation in the assay was determined with data from 0-17 hours. […]
quantity: remaining activity at 25 µM

INSERT INTO results (compound, quantity, result) VALUES
  ('CCc1c(Cc2cccc3ccccc23)c(-c2cccc(C(F)(F)F)c2)c2n(c1=O)C(C(=O)O)CN2C (stereo not shown) [Compound 136]', 'remaining activity at 25 µM', '> 60%'),
  ('O=C(O)C1CN(CCC2CCCCC2)c2c(-c3cccc(C(F)(F)F)c3)c(Cc3cccc4ccccc34)c(Cl)c(=O)n21 (stereo not shown) [Compound 207]', 'remaining activity at 25 µM', '31 to 60%'),
  ('CN1CC(C(=O)O)n2c1c(-c1cccc(C(F)(F)F)c1)c(C(F)(F)c1cccc3ccccc13)cc2=O (stereo not shown) [Compound 135]', 'remaining activity at 25 µM', '> 60%'),
  ('O=C(O)C1CN(Cc2ccccc2CO)c2c(-c3cccc(C(F)(F)F)c3)c(Cc3cccc4ccccc34)c(Cl)c(=O)n21 (stereo not shown) [Compound 181]', 'remaining activity at 25 µM', '31 to 60%'),
  ('N#Cc1c(Cc2cccc3ccccc23)c(-c2cccc(C(F)(F)F)c2)c2n(c1=O)C(C(=O)O)CN2Cc1ccccc1 (stereo not shown) [Compound 185]', 'remaining activity at 25 µM', '> 60%'),
  ('NC(=O)c1c(Cc2cccc3ccccc23)c(-c2cccc(C(F)(F)F)c2)c2n(c1=O)C(C(=O)O)CN2Cc1ccccc1 (stereo not shown) [Compound 203]', 'remaining activity at 25 µM', '> 60%'),
  ('CCCN1CC(C(=O)O)n2c(c(-c3cccc(C(F)(F)F)c3)c(Cc3cccc4ccccc34)c(O)c2=O)S1(=O)=O (stereo not shown) [Compound 141]', 'remaining activity at 25 µM', '> 60%'),
  ('CCCN1CC(C(=O)O)n2c(c(-c3cccc(C(F)(F)F)c3)c(C(F)(F)c3cccc4ccccc34)cc2=O)S1(=O)=O (stereo not shown) [Compound 138]', 'remaining activity at 25 µM', '> 60%'),
  ('O=C(O)C1CN(Cc2ccccc2)c2c(-c3cccc(C(F)(F)F)c3)c(CN3CCCc4ccccc43)c(Cl)c(=O)n21 (stereo not shown) [Compound 217]', 'remaining activity at 25 µM', '> 60%'),
  ('O=C(O)C1CN(Cc2ccccc2)c2c(-c3cccc(C(F)(F)F)c3)c(Cc3cccc4cnccc34)c(Cl)c(=O)n21 (stereo not shown) [Compound 212]', 'remaining activity at 25 µM', '> 60%'),
  ('NC(=O)c1c(Cc2cccc3ccccc23)c(-c2cccc(C(F)(F)F)c2)c2n(c1=O)C(C(=O)O)CN(C1CCCC1)S2(=O)=O (stereo not shown) [Compound 176]', 'remaining activity at 25 µM', '11 to 31%'),
  ('CCCN1CC(C(=O)O)n2c(c(-c3cccc(C(F)(F)F)c3)c(Cc3cccc4ccccc34)c(OCC)c2=O)S1(=O)=O (stereo not shown) [Compound 143]', 'remaining activity at 25 µM', '> 60%'),
  ('CN1CC(C(=O)O)n2c(c(-c3cccc(C(F)(F)F)c3)c(Cc3cccc4ccccc34)c(C(=O)NC(C)(C)C)c2=O)S1(=O)=O (stereo not shown) [Compound 158]', 'remaining activity at 25 µM', '> 60%');

---

- tested_on: human α-synuclein (Homo sapiens, UniProt P37840)
- Construct: the full-length gene for untagged human α-synuclein was inserted; made in house; host or cells: E. coli BL21(DE3), plasmid derived from pT7 or pET11a
- method: Cell-free Thioflavin T assay of α-synuclein aggregation (αSyn ThT Assay)
- Assay type: biochemical
- test_parameters: mean percent inhibition relative to DMSO control; αSyn 50 μM, compounds 100 μM; read-out: αSyn ThT Assay % inhibition
quantity: inhibition at 100 µM (%)

INSERT INTO results (compound, display_unit, quantitative_result) VALUES
  ('O=C(O)C1CN(Cc2ccc(CO)cc2)c2c(-c3cccc(C(F)(F)F)c3)c(Cc3cccc4ccccc34)c(Cl)c(=O)n21 (stereo not shown) [Compound 170]', '%', 30),
  ('O=C(O)C1CN(Cc2ccncc2)c2c(-c3cccc(C(F)(F)F)c3)c(Cc3cccc4ccccc34)c(Cl)c(=O)n21 (stereo not shown) [Compound 174]', '%', 23),
  ('O=C(O)C1CN(Cc2ccccc2)c2c(-c3cccc(C(F)(F)F)c3)c(Cc3cccc4ccccc34)c(F)c(=O)n21 (stereo not shown) [Compound 194]', '%', 57),
  ('O=C(O)C1CN(Cc2ccc(-c3ccccc3)cc2)c2c(-c3cccc(C(F)(F)F)c3)c(Cc3cccc4ccccc34)c(Cl)c(=O)n21 (stereo not shown) [Compound 202]', '%', 54),
  ('CCCN1CC(C(=O)O)n2c(c(-c3cccc(C(F)(F)F)c3)c(Cc3cccc4ccccc34)c(OCC)c2=O)S1(=O)=O (stereo not shown) [Compound 143]', '%', 96),
  ('CC(C)N1CC(C(=O)O)n2c1c(-c1cccc(C(F)(F)F)c1)c(Cc1cccc3ccccc13)c(Cl)c2=O (stereo not shown) [Compound 179]', '%', 72),
  ('CN1CC(C(=O)O)n2c(c(-c3cccc(C(F)(F)F)c3)c(Cc3cccc4ccccc34)c(C(=O)N3CCOCC3)c2=O)S1(=O)=O (stereo not shown) [Compound 160]', '%', 17),
  ('CCCN1CC(C(=O)O)n2c(c(-c3cccc(C(F)(F)F)c3)c(C(F)(F)c3cccc4ccccc34)cc2=O)S1(=O)=O (stereo not shown) [Compound 138]', '%', 74),
  ('CCc1c(Cc2cccc3ccccc23)c(-c2cccc(C(F)(F)F)c2)c2n(c1=O)C(C(=O)O)CN2Cc1ccccc1 (stereo not shown) [Compound 140]', '%', 48),
  ('CN(C)C(=O)c1c(Cc2cccc3ccccc23)c(-c2cccc(C(F)(F)F)c2)c2n(c1=O)C(C(=O)O)CN(C)S2(=O)=O (stereo not shown) [Compound 173]', '%', 86),
  ('CC(C)(C)c1ccc(CCN2CC(C(=O)O)n3c2c(-c2cccc(C(F)(F)F)c2)c(Cc2cccc4ccccc24)c(Cl)c3=O)cc1 (stereo not shown) [Compound 239]', '%', 58),
  ('NC(=O)c1c(Cc2cccc3ccccc23)c(-c2cccc(C(F)(F)F)c2)c2n(c1=O)C(C(=O)O)CN(CCCO)S2(=O)=O (stereo not shown) [Compound 184]', '%', 75),
  ('O=C(O)C1CN(Cc2ccccc2)c2c(-c3cccc(C(F)(F)F)c3)c(Cc3cccc4ccccc34)c(Cl)c(=O)n21 (stereo not shown) [Compound 004]', '%', 55),
  ('O=C(O)C1CN(CC2CCCCC2)c2c(-c3cccc(C(F)(F)F)c3)c(Cc3cccc4ccccc34)c(Cl)c(=O)n21 (stereo not shown) [Compound 180]', '%', 63),
  ('CCCN1CC(C(=O)O)n2c(c(-c3cccc(C(F)(F)F)c3)c(Cc3cccc4ccccc34)c(NC(=O)CC)c2=O)S1(=O)=O (stereo not shown) [Compound 153]', '%', 48),
  ('O=C(O)C1CN(Cc2ccccc2)c2c(-c3cccc(C(F)(F)F)c3)c(Cc3cccc4ccccc34)cc(=O)n21 (stereo not shown) [Compound 187]', '%', 45),
  ('O=C(O)C1CN(CCc2ccccc2)c2c(-c3cccc(C(F)(F)F)c3)c(Cc3cccc4ccccc34)c(Cl)c(=O)n21 (stereo not shown) [Compound 178]', '%', 43),
  ('NC(=O)c1c(Cc2cccc3ccccc23)c(-c2cccc(C(F)(F)F)c2)c2n(c1=O)C(C(=O)O)CN(C1CCCC1)S2(=O)=O (stereo not shown) [Compound 176]', '%', 98),
  ('CC(C)(C)c1ccc(Cc2c(-c3cccc(C(F)(F)F)c3)c3n(c(=O)c2Cl)C(C(=O)O)CN3Cc2ccccc2)cc1 (stereo not shown) [Compound 216]', '%', 46),
  ('CCCN1CC(C(=O)O)n2c1c(-c1cccc(C(F)(F)F)c1)c(Cc1cccc3ccccc13)c(Cl)c2=O (stereo not shown) [Compound 162]', '%', 67),
  ('N#Cc1ccccc1CN1CC(C(=O)O)n2c1c(-c1cccc(C(F)(F)F)c1)c(Cc1cccc3ccccc13)c(Cl)c2=O (stereo not shown) [Compound 165]', '%', 30),
  ('O=C(O)C1CN(CCCCCO)c2c(-c3cccc(C(F)(F)F)c3)c(Cc3cccc4ccccc34)c(Cl)c(=O)n21 (stereo not shown) [Compound 199]', '%', 29),
  ('O=C(O)C1CN(Cc2cccc(O)c2)c2c(-c3cccc(C(F)(F)F)c3)c(Cc3cccc4ccccc34)c(Cl)c(=O)n21 (stereo not shown) [Compound 196]', '%', 61),
  ('O=C(O)C1CN(CCCCCCCN2CC(C(=O)O)n3c2c(-c2cccc(C(F)(F)F)c2)c(Cc2cccc4ccccc24)c(Cl)c3=O)c2c(-c3cccc(C(F)(F)F)c3)c(Cc3cccc4ccccc34)c(Cl)c(=O)n21 (stereo not shown) [Compound 188]', '%', 62),
  ('CCCN1CC(C(=O)O)n2c(c(-c3cccc(C(F)(F)F)c3)c(Cc3cccc4ccccc34)c(N3CCCC3=O)c2=O)S1(=O)=O (stereo not shown) [Compound 151]', '%', 61);
